# Test Target: human recombinant FAAH (Homo sapiens, UniProt O00519)
# Construct: purchased Cayman kit Item No. 10005196; FAAH enzyme 700302
# Sequence (O00519 whole entry): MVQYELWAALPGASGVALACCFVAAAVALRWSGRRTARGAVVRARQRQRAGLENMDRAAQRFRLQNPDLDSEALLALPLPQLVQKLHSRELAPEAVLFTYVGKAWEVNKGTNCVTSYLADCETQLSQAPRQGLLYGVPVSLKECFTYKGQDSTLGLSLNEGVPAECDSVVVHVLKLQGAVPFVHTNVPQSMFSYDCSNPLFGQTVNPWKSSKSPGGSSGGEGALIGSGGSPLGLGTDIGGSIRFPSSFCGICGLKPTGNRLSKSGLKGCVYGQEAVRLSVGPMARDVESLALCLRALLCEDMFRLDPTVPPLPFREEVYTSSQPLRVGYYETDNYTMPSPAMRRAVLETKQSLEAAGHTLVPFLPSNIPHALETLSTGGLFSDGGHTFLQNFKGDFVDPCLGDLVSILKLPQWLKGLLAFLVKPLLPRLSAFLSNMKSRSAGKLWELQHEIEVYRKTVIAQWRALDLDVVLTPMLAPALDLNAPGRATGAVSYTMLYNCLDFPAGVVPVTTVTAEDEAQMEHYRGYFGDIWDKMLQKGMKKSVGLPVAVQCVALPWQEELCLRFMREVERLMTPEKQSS
# Assay Explanation: FAAH counter screen (Cayman FAAH Inhibitor Screening Assay Kit), Example 21
# Type: biochemical
# Stated Conditions: Method A: starting concentration of 100 μM
Value Kind: IC50

O=C(Nc1cccnc1)N1CCC(Cc2cccc(Oc3ccc(C(F)(F)F)cn3)c2)CC1 [reference compound]; 0.014 µM

# `Cc1cc(C2CC3(C2)CN(C(=O)c2cccc(O)c2)C3)n(-c2ccccc2C)n1` with human recombinant FAAH (Homo sapiens, UniProt O00519): IC50 is > 10 µM

# `Cc1cc(C2CC3(C2)CN(C(=O)c2c(F)ccc(O)c2F)C3)n(-c2ccccc2C)n1` with human recombinant FAAH (Homo sapiens, UniProt O00519): IC50 is > 10 µM

# O=C(Oc1ccc([N+](=O)[O-])cc1)N1CCN(Cc2cccc(Oc3ccccc3)c2)CC1 [reference compound] with human recombinant FAAH (Homo sapiens, UniProt O00519): IC50 is 0.459 µM

====

# Test Target: human MAGL (Homo sapiens, UniProt Q99685)
# Construct: recombinant MAGL enzyme (aa 2-303 RBC, internal preparation)
# Assay Explanation: MAGL inhibition potency (IC50) with 4NPA substrate, Example 20, methods of Table C
# Type: biochemical
# Stated Conditions: Method 12: Enzyme Conc 15, Reaction Biology (15 nM); read-out: MAGL Potency (Detection Method)
Value Kind: IC50

Measured IC50 of Cc1cn(C2CC3(C2)CN(C(=O)c2cc(O)ccc2F)C3)nc1-c1cc(F)ccc1Cl (single isomer, unassigned) [Compound 520] : < 50 nM

====

# Test Target: UniProt:Q99685
# Assay Explanation: MAGL reversible inhibition assay (washout), Example 22
# Format: biochemical
# Set-up: concentration or dose not given beside the values
# Stated Conditions: relative to control (no inhibitor before washout), immediately following 30 minute washout
Below: a set of entries, each annotated with reported % MAGL activity returning after washout.

Cc1cnn(C2CC3(C2)CN(C(=O)c2cc(O)ccc2F)C3)c1-c1cc(F)ccc1Cl (single isomer, unassigned) [Compound 519]; >50%

# evaluate next
Measured % MAGL activity returning after washout of O=C(c1cc(O)ccc1F)N1CC2(CC(n3cc(C4CC4)c(-c4ccccc4F)n3)C2)C1 [Compound 493] : <50%

====

# Test Target: human MAGL (Homo sapiens)
# Construct: recombinant MAGL enzyme (aa 2-303 RBC, internal preparation)
# Sequence (Q99685 2-303): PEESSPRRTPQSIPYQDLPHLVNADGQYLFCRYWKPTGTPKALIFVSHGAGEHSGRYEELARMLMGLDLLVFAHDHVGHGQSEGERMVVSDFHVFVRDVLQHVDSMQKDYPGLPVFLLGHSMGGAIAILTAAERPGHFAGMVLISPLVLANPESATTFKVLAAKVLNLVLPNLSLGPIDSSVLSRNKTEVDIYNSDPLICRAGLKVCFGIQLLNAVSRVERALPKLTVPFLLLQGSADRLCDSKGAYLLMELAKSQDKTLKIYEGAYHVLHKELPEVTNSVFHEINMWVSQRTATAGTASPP
# Assay Explanation: MAGL inhibition potency (IC50) with 4NPA substrate, Example 20, methods of Table C
# Format: biochemical
pIC50: −log10 of the molar value.
Value Kind: pIC50

Measured pIC50 of `Cc1cc(C2CC3(C2)CN(Cc2cc(O)ccc2F)C3)n(-c2ccccc2C)n1` : < 5.00

====

# Assay Explanation: Plasma and brain concentrations after single intraperitoneal administration, Examples 23 and 24
# Type: in vivo, male C57BL/6 mice
# Stated Conditions: male, C57BL/6, mouse, plasma, IP 20 mg/kg, read-out: Plasma Concentration (ng/mL), Mean
Value Kind: concentration at 0.5 h (ng/mL)
Answer in ng/mL, number only, no unit symbol.

Measured concentration at 0.5 h of O=C(c1cc(O)ccc1F)N1CC2(CC(n3cc(C(F)(F)F)c(-c4ccccc4F)n3)C2)C1 (single isomer, unassigned) [Compound 473] : 1820

====

# Test Target: human MAGL (Homo sapiens, UniProt Q99685)
# Construct: recombinant MAGL enzyme (aa 2-303 RBC, internal preparation)
# Sequence (Q99685 2-303): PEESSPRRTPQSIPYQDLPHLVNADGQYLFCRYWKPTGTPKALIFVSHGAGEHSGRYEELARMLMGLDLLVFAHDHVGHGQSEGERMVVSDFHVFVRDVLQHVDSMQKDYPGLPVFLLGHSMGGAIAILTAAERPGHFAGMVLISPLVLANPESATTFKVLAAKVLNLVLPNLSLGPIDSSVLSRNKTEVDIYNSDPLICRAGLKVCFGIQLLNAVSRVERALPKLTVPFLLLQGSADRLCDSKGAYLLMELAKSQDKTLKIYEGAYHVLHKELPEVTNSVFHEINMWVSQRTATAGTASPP
# Assay Explanation: MAGL inhibition potency (IC50) with 4NPA substrate, Example 20, methods of Table C
# Assay type: biochemical
# Stated Conditions: Method 2: MAGL (10 nM) Cayman Chemical Enzyme
pIC50: −log10 of the molar value.
Value Kind: pIC50

COc1cc(F)ccc1CN1CC2(CC(c3cc(C)nn3-c3ccccc3C)C2)C1; < 5.00
COC(c1cccn1C)N1CC2(CC(c3cc(C)nn3-c3ccccc3C)C2)C1 (stereo not drawn); < 5.00

# evaluate next
Measured pIC50 of COC(c1ccn(C)c1)N1CC2(CC(c3cc(C)nn3-c3ccccc3C)C2)C1 (stereo not drawn) : < 5.00

====

# Test Target: human recombinant FAAH (Homo sapiens, UniProt O00519)
# Construct: purchased Cayman kit Item No. 10005196; FAAH enzyme 700302
# Assay Explanation: FAAH counter screen (Cayman FAAH Inhibitor Screening Assay Kit), Example 21
# Format: biochemical
# Stated Conditions: Method A: starting concentration of 100 μM
Value Kind: IC50

Measured IC50 of `Cc1cc(C2CC3(C2)CN(C(=O)c2ccccc2F)C3)n(-c2ccccc2C)n1` : > 10 µM

Measured IC50 of `COc1ccc(F)c(C(=O)N2CC3(CC(c4cc(C)nn4-c4ccccc4C)C3)C2)c1` : > 10 µM

Measured IC50 of `Cc1ccccc1-n1nc(C2CC3(C2)CN(C(=O)c2cc(O)ccc2F)C3)cc1C` : > 10 µM

====

# Test Target: MAGL enzyme (Homo sapiens, UniProt Q99685)
# Assay Explanation: MAGL reversible inhibition assay (washout), Example 22
# Format: biochemical
# Parameters: concentration or dose not given beside the values
# Stated Conditions: relative to control (no inhibitor before washout), immediately following 30 minute washout
# Procedure: The reversible mechanism of MAGL inhibition of a test compound of Formula (I) can be determined. Flag-tagged MAGL enzyme will be immobilized on anti-Flag beads. […] Colorimetric substrate (4-NPA) will be added and the reaction monitored on a plate reader for 30 minutes to verify complete inhibition. […] The reaction will be monitored for an additional 30 minutes; returning enzymatic activity will indicate reversibility of inhibition. […]
Value Kind: % MAGL activity returning after washout

Some solved entries appear below for comparison.
Cc1cc(C2CC3(C2)CN(C(=O)c2cc(O)ccc2F)C3)n(-c2ccccc2C)n1 [Compound 74]; >50%
Cc1cn(C2CC3(C2)CN(C(=O)c2cc(O)ccc2F)C3)nc1-c1cc(F)ccc1Cl (single isomer, unassigned) [Compound 520]; >50%
O=C(c1cc(O)ccc1F)N1CC2(CC(n3cc(C(F)(F)F)c(-c4ccccc4F)n3)C2)C1 (single isomer, unassigned) [Compound 473]; <50%

# evaluate next
Measured % MAGL activity returning after washout of O=C(Oc1ccc([N+](=O)[O-])cc1)N1CCC(C(O)(c2ccc3c(c2)OCO3)c2ccc3c(c2)OCO3)CC1 [JZL-184, reference compound] : <1%
